target: human recombinant PAK1-KD protein (Homo sapiens, UniProt Q13153); assay: PAK1-KD (Kinase Domain) IC50 Zlyte Assay (FRET peptide substrate phosphorylation); settings: Z'-LYTE, Biological Example 1
Sequence (Q13153 270-521 limits assumed): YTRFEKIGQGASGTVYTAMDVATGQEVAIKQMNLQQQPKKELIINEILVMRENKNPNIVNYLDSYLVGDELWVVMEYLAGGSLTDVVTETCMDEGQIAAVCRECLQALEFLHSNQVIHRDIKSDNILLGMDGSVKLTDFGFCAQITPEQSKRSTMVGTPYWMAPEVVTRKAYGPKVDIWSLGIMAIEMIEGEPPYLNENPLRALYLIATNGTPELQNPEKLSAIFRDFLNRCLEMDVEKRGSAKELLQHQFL
pKi: −log10 of the molar value.
measure.name: pKi

CNc1ncc2cc(-c3ccc(-c4cccc(C)n4)cc3Cl)c(=O)n(CCC3CNCCO3)c2n1 (single isomer, unassigned) [Example I-125]; 8.33
CCNc1ncc2cc(-c3ccc(-c4cncc(C)n4)cc3Cl)c(=O)n(CCC(N)=O)c2n1; 6.99
CNc1ncc2cc(-c3ccc(-c4cncc(C)n4)cc3Cl)c(=O)n(CCNCCO)c2n1; 7.25

A: CCNc1ncc2cc(-c3ccc(-c4cncc(C)n4)cc3Cl)c(=O)n(CCCCO)c2n1
B: CNc1ncc2cc(-c3ccc(-c4cccc(C)n4)cc3C)c(=O)n(C[C@H]3CNCCO3)c2n1
C: CNc1ncc2cc(-c3ccc(-c4cccc(C)n4)cc3Cl)c(=O)n(CS(=O)(=O)N3CCNCC3)c2n1
D: Cc1cncc(-c2ccc(-c3cc4cnc(NC5COC5)nc4n(CCCCO)c3=O)c(Cl)c2)n1
Q) List items by pKi in falling order. Present the labels in the sequence the task asks for.
A) B, C, D, A
